Provenance of the data: PubChem BioAssay (NCI)

# Test system: SF-295 CNS
# Run description: NCI tumour cell line growth inhibition, 48 h
Item-by-item account of TGI

Examples from the recorded data:
molecule=Cc1ccc2ccc(O)cc2c1 reported_value="> 100 µM"
molecule=O=C(N/N=C\c1c(O)ccc2ccccc12)c1ccncc1 reported_value="> 25 µM"
molecule=CCC[CH2][Sn]1([CH2]CCC)[O]CC(c2ccccn2)C[O]1 reported_value="38.1 µM"
molecule="CC(C1CCCC1=O)C1CCCC1=O (stereo unspecified)" reported_value="> 100 µM"
molecule=Cn1cnc2[nH]c(=O)[nH]c(=S)c21 reported_value="> 100 µM"

Quick note, TGI for Cn1cc(C2=C(c3cn(C)c4ccc(OCc5ccccc5)cc34)C(=O)NC2=O)c2ccccc21 landed at > 25 µM

###

# Tested on: SK-MEL-2 melanoma
# Run description: NCI tumour cell line growth inhibition, 48 h
Item-by-item account of TGI

Examples from the recorded data:
compound="COc1ccc(C2C(C#N)=C(N)Oc3c2sc2c(C)cccc32)cc1 (stereo unspecified)" reported_value="26.5 µM"
compound="COc1ccc(C(O)c2cc3c(N)c(C(=O)Nc4ccc(Br)cc4)sc3nc2C)cc1 (stereo unspecified)" reported_value="47.1 µM"
compound="CCOC(=O)C(NC(=O)c1ccccc1)(Nc1cc(C)on1)C(F)(F)F (stereo unspecified)" reported_value="> 100 µM"
compound=CCOC(=O)Nc1nc2cc(OC)c(OC)c(OC)c2s1 reported_value="> 100 µM"
compound="COCP1(=S)OC(C)CCN1C(C)C (stereo unspecified)" reported_value="> 100 µM"

Quick note, TGI for O=C(CSc1nnc(Cc2ccccc2)o1)Nc1ccc(Cl)cc1Cl landed at > 100 µM

Quick note, TGI for COc1ccc(/C=C/C(=O)c2ccc(NC(=O)CSc3nnc(-c4ccc(OC)c(OC)c4)n3-c3ccccc3)cc2)cc1 landed at 23.3 µM

Quick note, TGI for COC(=O)C(C(=O)C(=O)Nc1nc(=S)[nH][nH]1)c1csc(N)n1 (stereo unspecified) landed at > 100 µM

Quick note, TGI for O=C(CCc1ccc(O)cc1)NCCc1cccc(O)c1 landed at > 50 µM

Quick note, TGI for CCc1cccc(CC)c1NC(=O)C(=O)Cc1nc2ccccc2o1 landed at > 100 µM

Quick note, TGI for O=C1C=C(Nc2ccccc2C(=O)c2ccccc2)c2ccccc2C1=O landed at > 100 µM

###

# Tested on: BT-549 breast
Where a SMILES comes first, the peptide text is derived from it. [ ]: non-standard residue; d: D form. The star is where a group is joined. Nle = CCCC[C@H](N)C(=O)O; Cbz = O=C(OCc1ccccc1)*
Output constraint: value belongs to active, inactive

Past entries and their recorded results:
compound="CCCC[C@@H](C=O)NC(=O)[C@H](CC(C)C)NC(=O)[C@H](CC(C)C)NC(=O)OCc1ccccc1 (Cbz-Leu-Leu-[Nle]-aldehyde)" study_target="BT-549 breast" classification=active
compound=O=C1C=CC(=O)C(c2cc(-c3ccc(Cl)cc3)nn2-c2ccccc2)=C1 study_target="BT-549 breast" classification=inactive
compound="CCN(CC)CCNc1ccc(C)c2sc3ccccc3c(=O)c12 (tested in a mixture with another compound)" study_target="BT-549 breast" classification=inactive

Now let's try a different one.
stdin: Could you please tell me the result logged for COc1ccccc1N1CCN(CC(O)COc2c(Br)c(Br)c(Br)c3c2OC(C)(C)C3)CC1 (centres undefined) in this assay?
stdout: inactive

###

Item-by-item account of log10 TGI
# Tested on: IGROV1 ovarian
# Run description: NCI tumour cell line growth inhibition, 48 h
Where a SMILES comes first, the peptide text is derived from it. [ ]: non-standard residue; d: D form. The star is where a group is joined. Bn2Val = CC(C)[C@@H](C(=O)*)N(Cc1ccccc1)Cc1ccccc1; NH(4-F-benzyl) = Fc1ccc(CN*)cc1; NMeV = CN[C@H](C(=O)O)C(C)C; dNMeA = CN[C@H](C)C(=O)O
Scale: decimal log of TGI, TGI in µM.

compound="COc1ccc(/C=C2/SC(c3ccccc3)N(NC(=O)CCCCCCCCC(=O)NN3C(=O)/C(=C\\c4ccc(OC)c(OC)c4)SC3c3ccccc3)C2=O)cc1OC (configuration not stated)" study_target="IGROV1 ovarian" reported_value=1.79
compound=C/C(=N/NC(=S)N1CCCCC1)c1cccc(/C(C)=N\NC(=S)N2CCCCC2)n1 study_target="IGROV1 ovarian" reported_value=0.65

Quick note, log10 TGI for CC(C)[C@H](NC(=O)[C@H](C(C)C)N(Cc1ccccc1)Cc1ccccc1)C(=O)N(C)[C@H](C(=O)N1CCC[C@H]1C(=O)N(C)[C@H](C)C(=O)NCc1ccc(F)cc1)C(C)C (Bn2Val-V[NMeV]P[dNMeA]-{NH(4-F-benzyl)}) landed at 0.99

Quick note, log10 TGI for Cc1c2ccccc2c(C)n2c1nc1cc3ccccc3cc12 landed at 0.40

Quick note, log10 TGI for Clc1ccc(-c2ccc(CNCC3CCNCC3)o2)c(-c2ccccc2)c1 landed at 0.47

Quick note, log10 TGI for O=C1NC(c2cccc3ccccc23)Nc2ccc(O)cc21 (configuration not stated) landed at 1.98

Quick note, log10 TGI for C=C(CN1CCc2ccccc2C1)c1ccc(CCC(=O)Nc2ccccc2N)cc1 landed at 1.62

Quick note, log10 TGI for O=C(/C=C/c1cccc(O)c1)c1cccc(-n2cc(-c3ccc(Cl)cc3)[nH]c2=O)c1 landed at 0.80

Quick note, log10 TGI for COC1(C)OC[C@@]2(C)OC(C)C1(C)C2O[Si](C(C)C)(C(C)C)C(C)C (some centres not stated) landed at 1.89

###

# System: U251 CNS
Measured metric: GI50

Examples from the recorded data:
structure_as_smiles=CC(C)OC(=O)Nc1ccc(-c2nc(-c3cccc(OCCN4CCOCC4)c3)c(-c3ccnc(Br)c3)[nH]2)cc1 study_target="U251 CNS" measured_metric=GI50 reported_value="2010 nM"
structure_as_smiles=CC#CC#Cc1cccc(=O)o1 study_target="U251 CNS" measured_metric=GI50 reported_value="11200 nM"
structure_as_smiles=COc1cccc2c(Nc3ccc(C(=O)O)cc3)cc(-c3ccccc3)nc12 study_target="U251 CNS" measured_metric=GI50 reported_value="> 100000 nM"
structure_as_smiles=CCCOC(=O)c1ccc2c(c1)[N+](=O)C(C(=O)c1ccccc1)=C(C(F)(F)F)[N+]2=O study_target="U251 CNS" measured_metric=GI50 reported_value="1760 nM"

Continue with the next molecule.
The observed GI50 for O=C(/C=C/c1cccc(O)c1)c1cccc(-n2cc(-c3ccc(Cl)cc3)[nH]c2=O)c1 when tested with U251 CNS stands at 588 nM

###

# Tested on: A498 renal
Output constraint: value belongs to active, inactive

molecule=CC/C(=C(\c1ccc(Cl)cc1)c1ccc(OCCN2CCCCC2)cc1)c1ccc(O)cc1 classification=inactive
molecule=COc1cc(C(=O)/C=C/c2c(C)n([O-])c3ccc(C(F)(F)F)cc3[n+]2=O)cc(OC)c1OC classification=inactive
molecule=C/C(Cc1ccc(Cl)cc1)=C(\c1ccc(OCCN2CCCCCC2)cc1)c1ccc(OC(=O)c2ccccc2)cc1 classification=inactive

Now let's try a different one.
stdin: Could you please tell me the result logged for CCOC(=O)c1ccc2c(c1)c1c(C)c3cnccc3c(C)c1n2C in this assay?
stdout: active

###

# System: EKVX NSCLC
# Run description: NCI tumour cell line growth inhibition, 48 h
Measured metric: TGI

Examples from the recorded data:
compound=CCc1ccccc1N1C(=O)C(=O)C(c2nc3ccccc3s2)C(=O)C1=O study_target="EKVX NSCLC" reported_value="> 100 µM"
compound="O=c1ccn(C2OC(CN(O)CCC3C(O)C(CO)OC3n3ccc(=O)[nH]c3=O)C(O)C2O)c(=O)[nH]1 (configuration not stated)" study_target="EKVX NSCLC" reported_value="> 100 µM"
compound=CC1=NN(C2=NS(=O)(=O)c3ccccc3N2C)C(=O)C1 study_target="EKVX NSCLC" reported_value="> 100 µM"
compound=COc1ccc(/C(COc2ccc3c(c2)oc(=O)c2cc(OC)ccc23)=N/O)cc1 study_target="EKVX NSCLC" reported_value="> 100 µM"
compound=COc1ccc(NCc2cc(OC)cc(OC)c2)cc1 study_target="EKVX NSCLC" reported_value="> 100 µM"
compound=COc1ccc2c3c([nH]c2c1CC=C(C)C)C(=O)C=C(C)C3=O study_target="EKVX NSCLC" reported_value="> 25 µM"

Quick note, TGI for CCN(CC)S(=O)(=O)c1ccc2nc(NC(=O)OC)[nH]c2c1 landed at > 100 µM

Quick note, TGI for O=c1c(Br)c(-c2ccccc2)[nH]c2ccccc12 landed at > 100 µM

Quick note, TGI for Cc1c2ccccc2c(C)n2c1nc1cc3ccccc3cc12 landed at 9.75 µM

Quick note, TGI for CCCCc1[nH]ccc2c(C)c3nc4ccccc4c3cc12 landed at 13.6 µM

Quick note, TGI for COc1ccc2c(c1)SC1=NNC(Cl)C(=O)N12 (configuration not stated) landed at 29.1 µM

Quick note, TGI for COC(=O)Cc1c([C@H]2[C@H](CC(=O)OC)c3ccccc3N2C(=O)C(F)(F)F)[nH]c2ccccc12 landed at > 100 µM

Quick note, TGI for CC(C)OC(=O)Nc1ccc(-c2nc(-c3cccc(OCCN4CCOCC4)c3)c(-c3ccnc(Br)c3)[nH]2)cc1 landed at 7.55 µM

Quick note, TGI for COC(=O)c1cc(CC2Cc3cc4c(cc3C2)CCC4)cc2c1CCC2 landed at > 100 µM

Quick note, TGI for CC(=O)c1ccc(NC(=O)/C(CC(=O)/C=C/c2ccccc2)=N/NC(N)=S)cc1 landed at > 100 µM

Quick note, TGI for CC(C1CCCC1=O)C1CCCC1=O (configuration not stated) landed at > 100 µM

Quick note, TGI for COc1ccc(-c2c3ccccc3c(-c3ccc(OCCBr)cc3)c3ccccc23)cc1 landed at > 100 µM

Quick note, TGI for CC(C)(C)OCC1NC(=O)[C@@H]2Cc3c([nH]c4ccccc34)C(C3CCCCC3)N2C1=O (some centres not stated) landed at 67.9 µM

Quick note, TGI for COc1ccc(OC)c2c(C(=O)O)c(C(C)c3ccccc3)ccc12 (configuration not stated) landed at > 100 µM

Quick note, TGI for COc1ccc(C(=O)Cc2ccc(Cl)cc2)cc1OC landed at > 100 µM

Quick note, TGI for COC(=O)C1SC(N(C)c2ccccc2)=NC12c1ccccc1Nc1ccccc12 (configuration not stated) landed at 66.3 µM

Quick note, TGI for O=C(N/N=C\c1c(O)ccc2ccccc12)c1ccncc1 landed at > 25 µM
